Tested on: 598228-144-R-J1-PDC complex spheroid viability;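 further: spheroids exposed to the agents for one week before reading; percent of vehicle DMSO control viability so 100% = untreated growth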
experimental protocol: Anticancer human tumor 598228-144-R-J1-PDC patient-derived serous endometrial adenocarcinoma cell line growth inhibition [GQUAD]
measurement setup: second compound 10 µM; first compound 10 µM; stronger effect = lower value
Overview of recorded viability, T/C for various compounds
Answer in %, number only, no unit symbol.

Example results:
Nc1ccn(C2OC(CO)C(O)C2(F)F)c(=O)n1 (configuration not stated) + Cc1[nH]c2ccc(F)cc2c1-c1nc2c3cccnc3c3ncccc3c2[nH]1 :: 32
COc1cc(C2c3cc4c(cc3C(OC3OC5COC(C)OC5C(O)C3O)C3COC(=O)C23)OCO4)cc(OC)c1O (configuration not stated) + Cc1cnc(CNC(=O)c2c(=O)c3ccc(N4CCCN(C)CC4)nc3n3c2sc2ccccc23)cn1 :: 9.83
CC1COCCN1c1cc(-c2ccnn2C)c2ccnc(-c3ccn[nH]3)c2n1 (configuration not stated) + CN(C)c1ccc(Nc2c3ccc(NC(=O)CCN4CCCC4)cc3nc3cc(NC(=O)CCN4CCCC4)ccc23)cc1 :: 14.9
CC(C)n1c(=O)n(C)c2cnc3cc(F)c(-c4ccc(OCCCN5CCCCC5)nc4)cc3c21 + Cc1[nH]c2ccc(F)cc2c1-c1nc2c3cccnc3c3ncccc3c2[nH]1 :: 46.5
COc1cccc2c1C(=O)c1c(O)c3c(c(O)c1C2=O)CC(O)(C(=O)CO)CC3OC1CC(N)C(O)C(C)O1 (configuration not stated) + Cc1[nH]c2ccc(F)cc2c1-c1nc2c3cccnc3c3ncccc3c2[nH]1 :: 0.68
O=C(c1cc(Cc2n[nH]c(=O)c3ccccc23)ccc1F)N1CCN(C(=O)C2CC2)CC1 + Cc1[nH]c2ccc(F)cc2c1-c1nc2c3cccnc3c3ncccc3c2[nH]1 :: 61.6
C=CC(=O)N1CCN(c2nc(=O)n(-c3c(C)ccnc3C(C)C)c3nc(-c4c(O)cccc4F)c(F)cc23)C(C)C1 (configuration not stated) + Cc1[nH]c2ccc(F)cc2c1-c1nc2c3cccnc3c3ncccc3c2[nH]1 :: 103
COc1cccc2c1C(=O)c1c(O)c3c(c(O)c1C2=O)CC(O)(C(=O)CO)CC3OC1CC(N)C(O)C(C)O1 (configuration not stated) + CN(C)c1ccc(Nc2c3ccc(NC(=O)CCN4CCCC4)cc3nc3cc(NC(=O)CCN4CCCC4)ccc23)cc1 :: 0.77
O=C(c1cc(Cc2n[nH]c(=O)c3ccccc23)ccc1F)N1CCN(C(=O)C2CC2)CC1 + CN(C)c1ccc(Nc2c3ccc(NC(=O)CCN4CCCC4)cc3nc3cc(NC(=O)CCN4CCCC4)ccc23)cc1 :: 50.3
COc1cccc2c1C(=O)c1c(O)c3c(c(O)c1C2=O)CC(O)(C(=O)CO)CC3OC1CC(N)C(O)C(C)O1 (configuration not stated) + Cc1cnc(CNC(=O)c2c(=O)c3ccc(N4CCCN(C)CC4)nc3n3c2sc2ccccc23)cn1 :: 0.29

Hey, 598228-144-R-J1-PDC complex spheroid viability data for CC(C)n1c(=O)n(C)c2cnc3cc(F)c(-c4ccc(OCCCN5CCCCC5)nc4)cc3c21 + Cc1cnc(CNC(=O)c2c(=O)c3ccc(N4CCCN(C)CC4)nc3n3c2sc2ccccc23)cn1 : viability, T/C came out at 0.34

Hey, 598228-144-R-J1-PDC complex spheroid viability data for O=C(NO)c1cnc(N2CCN(S(=O)(=O)c3ccc4ccccc4c3)CC2)nc1 + Cc1cnc(CNC(=O)c2c(=O)c3ccc(N4CCCN(C)CC4)nc3n3c2sc2ccccc23)cn1 : viability, T/C came out at 0.25

Hey, 598228-144-R-J1-PDC complex spheroid viability data for C=CC(=O)N1CCN(c2nc(=O)n(-c3c(C)ccnc3C(C)C)c3nc(-c4c(O)cccc4F)c(F)cc23)C(C)C1 (configuration not stated) + CN(C)c1ccc(Nc2c3ccc(NC(=O)CCN4CCCC4)cc3nc3cc(NC(=O)CCN4CCCC4)ccc23)cc1 : viability, T/C came out at 73

Hey, 598228-144-R-J1-PDC complex spheroid viability data for O=c1[nH]cc(F)c(=O)[nH]1 + Cc1cnc(CNC(=O)c2c(=O)c3ccc(N4CCCN(C)CC4)nc3n3c2sc2ccccc23)cn1 : viability, T/C came out at 51.9
